- targetEntity: PDE4Bcat (Homo sapiens)
- assayProtocol: Phosphodiesterase inhibitory activity, PDE4 ([3H]cAMP, recombinant enzyme)
- cond: 30° C., 20 minutes, read-out: IC50(μmol/L) PDE4
pIC50: −log10 of the molar value.
measurementType: pIC50

Check out these entries, answers already filled in.
>>> observedmeasurement("COc1ccc(-c2ccc(=O)n(CCCCOc3ccc(C4=NNC(=O)CC4)c(F)c3F)n2)c2nc(C(F)(F)F)nn12")
"5.00 to 6.00"
>>> observedmeasurement("CCc1ccc2c(C3=NN(CCCCOc4ccc(C5=NNC(=O)C5(C)C)cc4)C(=O)CC3C)ccc(OC)c2n1 (stereo not drawn)")
"> 7.00"
>>> observedmeasurement("COc1ccc(-c2ccc(=O)n(CCCCOc3ccc(C4=NNC(=O)CC4C)c(F)c3F)n2)c2cc(C(F)(F)F)oc12 (stereo not drawn)")
"6.00 to 7.00"
>>> observedmeasurement("CCc1ccc2c(C3=NN(CCCCOc4ccc(C5=NNC(=O)CC5)cc4OC)C(=O)CC3C)ccc(OC)c2n1 (stereo not drawn)")
"6.00 to 7.00"
>>> observedmeasurement("CCc1nc2c(OC)ccc(-c3ccc(=O)n(CCCCOc4ccc(C5=NNC(=O)CC5C)c(F)c4F)n3)c2o1 (stereo not drawn)")
"6.00 to 7.00"

Batch lookup, pIC50 per entry.
1. COc1ccc(-c2ccc(=O)n(CCCCOc3ccc(C4=NNC(=O)CC4C)cc3)n2)c2cccnc12 (stereo not drawn)
2. CCc1ccc2c(-c3ccc(=O)n(CCCCOc4ccc(C5=NNC(=O)CC5C)cc4F)n3)ccc(OC)c2n1 (single isomer, unassigned; (-)) [Example 329]
3. COc1ccc(-c2ccc(=O)n(CCCCOc3ccc(C4=NNC(=O)C4(C)C)c(F)c3F)n2)c2nc(C(F)(F)F)[nH]c12
4. COc1ccc(-c2ccc(=O)n(CCCCOc3ccc(C4=NNC(=O)CC4)c(F)c3F)n2)c2cc(C(F)(F)F)sc12
5. CCc1ccc2c(-c3ccc(=O)n(CCCCOc4ccc(C5=NNC(=O)CC5C)c(F)c4F)n3)ccc(OC)c2n1 (stereo not drawn) [Example 289]
6. CCc1ccc2c(C3=NN(CCCCOc4ccc(C5=NNC(=O)CC5C)c(F)c4F)C(=O)CC3C)ccc(OC)c2n1 (stereo not drawn)
7. CCc1ccc2c(-c3ccc(=O)n(CCCCOc4ccc(C5=NNC(=O)CC5C)cc4F)n3)ccc(OC)c2n1 (stereo not drawn) [Example 287]

OUTPUT:
6.00 to 7.00
> 7.00
5.00 to 6.00
5.00 to 6.00
> 7.00
> 7.00
> 7.00

Batch lookup, pIC50 per entry.
1. COc1ccc(-c2ccc(=O)n(CCCCOc3ccc(C4=NNC(=O)CC4C)c(F)c3F)n2)c2nc(C(F)(F)F)[nH]c12 (stereo not drawn)
2. CCc1ccc2c(-c3ccc(=O)n(CCOc4ccc(C5=NNC(=O)CC5C)c(F)c4F)n3)ccc(OC)c2n1 (stereo not drawn)
3. CCc1ccc2c(C3=NN(CCCCOc4ccc(C5=NNC(=O)CC5)cc4)C(=O)CC3C)ccc(OC)c2n1 (stereo not drawn)
4. CCc1ccc2c(C3=NN(CCCCOc4ccc(C5=NNC(=O)CC5C)cc4)C(=O)CC3C)ccc(OC)c2n1 (stereo not drawn) [Example 312]
5. COc1ccc(C2=NN(CCCCOc3ccc(C4=NNC(=O)CC4C)cc3)C(=O)CC2C)c2cc(C(F)(F)F)oc12 (stereo not drawn)
6. CCc1ccc2c(-c3ccc(=O)n(CCCCOc4ccc(C5=NNC(=O)CC5)c(F)c4F)n3)ccc(OC)c2n1
7. CCc1ccc2c(-c3ccc(=O)n(CCCCOc4ccc(C5=NNC(=O)CC5C)c(F)c4F)n3)ccc(OC)c2n1 (single isomer, unassigned; (+)) [Example 322]
8. CCc1ccc2c(C3=NN(CCCCOc4ccc(C5=NNC(=O)CC5)cc4F)C(=O)CC3C)ccc(OC)c2n1 (stereo not drawn)

OUTPUT:
6.00 to 7.00
6.00 to 7.00
> 7.00
> 7.00
> 7.00
6.00 to 7.00
> 7.00
> 7.00

Batch lookup, pIC50 per entry.
1. COc1ccc(C2=NN(CCCCOc3ccc(C4=NNC(=O)CC4C)cc3)C(=O)CC2C)c2[nH]c(C(F)(F)F)nc12 (stereo not drawn)
2. CCc1ccc2c(C3=NN(CCCCOc4ccc(C5=NNC(=O)CC5C)cc4)C(=O)CC3C)ccc(OC)c2n1 (single isomer, unassigned) [Example 340]
3. COc1ccc(-c2ccc(=O)n(CCCCOc3ccc(C4=NNC(=O)CC4C)cc3)n2)c2ccc(C)nc12 (stereo not drawn)
4. CCc1ccc2c(-c3ccc(=O)n(CCCCOc4ccc(C5=NNC(=O)CC5)cc4OC)n3)ccc(OC)c2n1
5. COc1ccc(-c2ccc(=O)n(CCCCOc3ccc(C4=NNC(=O)CC4C)cc3)n2)c2ccc(C(F)(F)F)nc12 (stereo not drawn)
6. CCc1ccc2c(C3=NN(CCCOc4ccc(C5=NNC(=O)CC5C)cc4)C(=O)CC3C)ccc(OC)c2n1 (stereo not drawn)

OUTPUT:
["> 7.00", "> 7.00", "6.00 to 7.00", "6.00 to 7.00", "6.00 to 7.00", "6.00 to 7.00"]

INPUT: For the compound `COc1ccc(-c2ccc(=O)n(CCCCOc3ccc(C4=NNC(=O)C4(C)C)c(F)c3F)n2)c2cc(C(F)(F)F)sc12` , what pIC50 is on record?
OUTPUT: 5.00 to 6.00

====

Exercise: state measured pIC50 for each of the compounds provided.
- targetEntity: PDE4Bcat (Homo sapiens, UniProt Q07343)
- Sequence (Q07343 330-659 limits assumed): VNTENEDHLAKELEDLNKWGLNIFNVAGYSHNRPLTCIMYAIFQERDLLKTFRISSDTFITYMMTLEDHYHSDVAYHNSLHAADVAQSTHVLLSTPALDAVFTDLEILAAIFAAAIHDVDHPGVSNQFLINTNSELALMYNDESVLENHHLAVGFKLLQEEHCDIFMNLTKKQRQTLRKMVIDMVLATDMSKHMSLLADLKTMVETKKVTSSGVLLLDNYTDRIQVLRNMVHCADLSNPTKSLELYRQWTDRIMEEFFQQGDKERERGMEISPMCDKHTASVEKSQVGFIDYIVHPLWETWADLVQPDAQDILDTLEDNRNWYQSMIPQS
- assayProtocol: Phosphodiesterase inhibitory activity, PDE4 ([3H]cAMP, recombinant enzyme)
- cond: 30° C., 20 minutes, read-out: IC50(μmol/L) PDE4
pIC50: −log10 of the molar value.

>>> observedmeasurement("CCc1ccc2c(-c3ccc(=O)n(CCCOc4ccc(C5=NNC(=O)CC5C)c(F)c4F)n3)ccc(OC)c2n1 (stereo not shown)")
"6.00 to 7.00"
>>> observedmeasurement("CCc1ccc2c(C3=NN(CCCCOc4ccc(C5=NNC(=O)CC5)c(F)c4F)C(=O)CC3C)ccc(OC)c2n1 (stereo not shown)")
"> 7.00"
>>> observedmeasurement("CCc1ccc2c(C3=NN(CCCCOc4ccc(C5=NNC(=O)CC5C)cc4OC)C(=O)CC3C)ccc(OC)c2n1 (stereo not shown)")
"6.00 to 7.00"
>>> observedmeasurement("CCc1ccc2c(C3=NN(CCCCOc4ccc(C5=NNC(=O)C5(C)C)cc4OC)C(=O)CC3C)ccc(OC)c2n1 (stereo not shown)")
"6.00 to 7.00"

Batch lookup, pIC50 per entry.
1. COc1ccc(-c2ccc(=O)n(CCCCOc3ccc(C4=NNC(=O)CC4C)c(F)c3F)n2)n2cc(C(F)(F)F)nc12 (stereo not shown)
2. COc1ccc(C2=NN(CCCCOc3ccc(C4=NNC(=O)CC4C)cc3)C(=O)CC2C)c2ccc(C(C)C)nc12 (stereo not shown)
3. CCc1ccc2c(-c3ccc(=O)n(CCCCOc4ccc(C5=NNC(=O)CC5C)cc4OC)n3)ccc(OC)c2n1 (stereo not shown)
4. COc1ccc(-c2ccc(=O)n(CCCCOc3ccc(C4=NNC(=O)CC4C)cc3)n2)c2ccc(C(C)C)nc12 (stereo not shown)
5. CCc1ccc2c(-c3ccc(=O)n(CCCCOc4ccc(C5=NNC(=O)C5(C)C)cc4OC)n3)ccc(OC)c2n1
6. COc1ccc(-c2ccc(=O)n(CCCCOc3ccc(C4=NNC(=O)C4(C)C)c(F)c3F)n2)n2cc(C(F)(F)F)nc12

OUTPUT:
6.00 to 7.00
6.00 to 7.00
6.00 to 7.00
6.00 to 7.00
5.00 to 6.00
6.00 to 7.00

====

- targetEntity: PDE3A catalytic domain (PDE3Acat) (Homo sapiens, UniProt Q14432)
- Construct: made in house; host or cells: Sf9 insect cells (baculovirus, Bac-to-Bac / Gateway)
- Sequence (Q14432 674-1093 limits assumed): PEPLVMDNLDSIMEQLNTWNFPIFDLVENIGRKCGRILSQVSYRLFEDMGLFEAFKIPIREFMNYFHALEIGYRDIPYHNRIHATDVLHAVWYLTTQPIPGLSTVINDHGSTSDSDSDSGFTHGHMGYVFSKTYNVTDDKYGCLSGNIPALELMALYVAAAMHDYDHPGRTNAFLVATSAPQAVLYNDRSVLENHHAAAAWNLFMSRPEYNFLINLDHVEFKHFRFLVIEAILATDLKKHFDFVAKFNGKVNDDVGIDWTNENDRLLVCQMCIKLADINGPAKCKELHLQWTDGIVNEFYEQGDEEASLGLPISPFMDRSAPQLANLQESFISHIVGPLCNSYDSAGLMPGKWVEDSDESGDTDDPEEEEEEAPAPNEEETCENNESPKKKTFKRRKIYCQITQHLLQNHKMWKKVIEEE
- assayProtocol: Phosphodiesterase inhibitory activity, PDE3 ([3H]cAMP, recombinant enzyme)
- Format: biochemical
- cond: 30° C., 20 minutes, read-out: IC50(μmol/L) PDE3
pIC50: −log10 of the molar value.
measurementType: pIC50

Check out these entries, answers already filled in.
>>> observedmeasurement("CCc1ccc2c(-c3ccc(=O)n(CCCCOc4ccc(C5=NNC(=O)C5(C)C)c(F)c4F)n3)ccc(OC)c2n1")
"> 7.00"
>>> observedmeasurement("COc1ccc(-c2ccc(=O)n(CCCCOc3ccc(C4=NNC(=O)CC4C)cc3)n2)c2cccnc12 (centres unmarked)")
"> 7.00"

Batch lookup, pIC50 per entry.
1. COc1ccc(-c2ccc(=O)n(CCCCOc3ccc(C4=NNC(=O)CC4C)cc3)n2)c2ccc(C)nc12 (centres unmarked)
2. COc1ccc(-c2ccc(=O)n(CCCCOc3ccc(C4=NNC(=O)CC4)c(F)c3F)n2)c2cc(C(F)(F)F)oc12
3. COc1ccc(-c2ccc(=O)n(CCCCOc3ccc(C4=NNC(=O)CC4C)c(F)c3F)n2)c2cccnc12 (centres unmarked)
4. CCc1ccc2c(C3=NN(CCCCOc4ccc(C5=NNC(=O)C5(C)C)cc4)C(=O)CC3C)ccc(OC)c2n1 (centres unmarked)

OUTPUT:
6.00 to 7.00
> 7.00
> 7.00
5.00 to 6.00

Batch lookup, pIC50 per entry.
1. CCc1ccc2c(-c3ccc(=O)n(CCCCOc4ccc(C5=NNC(=O)CC5)cc4OC)n3)ccc(OC)c2n1
2. COc1ccc(C2=NN(CCCCOc3ccc(C4=NNC(=O)CC4C)cc3)C(=O)CC2C)c2cc(C(F)(F)F)sc12 (centres unmarked)
3. COc1ccc(-c2ccc(=O)n(CCCCOc3ccc(C4=NNC(=O)CC4C)c(F)c3F)n2)n2cc(C(F)(F)F)nc12 (centres unmarked)
4. CCc1ccc2c(-c3ccc(=O)n(CCCOc4ccc(C5=NNC(=O)CC5C)c(F)c4F)n3)ccc(OC)c2n1 (centres unmarked)
5. CCc1ccc2c(-c3ccc(=O)n(CCCCOc4ccc(C5=NNC(=O)CC5C)c(F)c4F)n3)ccc(OC)c2n1 (single isomer, unassigned; (+)) [Example 322]
6. CCc1nc2c(OC)ccc(-c3ccc(=O)n(CCCCOc4ccc(C5=NNC(=O)C5(C)C)c(F)c4F)n3)c2o1
7. COc1ccc(-c2ccc(=O)n(CCCCOc3ccc(C4=NNC(=O)C4(C)C)c(F)c3F)n2)c2cc(C(F)(F)F)sc12
8. CCc1ccc2c(-c3ccc(=O)n(CCCCOc4ccc(C5=NNC(=O)CC5C)c(F)c4F)n3)ccc(OC)c2n1 (centres unmarked) [Example 289]

OUTPUT:
1. 5.00 to 6.00
2. > 7.00
3. > 7.00
4. 6.00 to 7.00
5. > 7.00
6. 6.00 to 7.00
7. 6.00 to 7.00
8. > 7.00
